Give inhibition at 10 µM for every item shown.
- Test system: TNF-α (degradation of IkB in HeLa cells or A431 cells)
- methodDescription: Human cell-based assay: inhibition of TNF-α induced degradation of IkB
- conditionDescription: 10 μM compound, HeLa or A431 cells, read-out: Inhibition at Various Compound Concentrations, 10 μM
Numbered stars: 1 amine (or outer) side, 2 acyl side, 3 side chain; on linkers, the order of the positions; unused ones are H or OH. Bridge positions count the residues as written; N and C are the ends. Square brackets hold non-standard residues; d marks the D form. Peptide text beside a SMILES is read from it. Phe(4-CF3) = N[C@@H](Cc1ccc(C(F)(F)F)cc1)C(=O)O; Phe(2,4-Cl2) = N[C@@H](Cc1ccc(Cl)cc1Cl)C(=O)O; Bip = N[C@@H](Cc1ccc(-c2ccccc2)cc1)C(=O)O; dPhe(4-NH2) = Nc1ccc(C[C@@H](N)C(=O)O)cc1; Phe(4-NH2) = Nc1ccc(C[C@H](N)C(=O)O)cc1; d(hPhe) = N[C@H](CCc1ccccc1)C(=O)O; d2Thi = N[C@H](Cc1cccs1)C(=O)O; Suc = O=C(CCC(=O)[*:2])[*:1]; GABA = NCCCC(=O)O; βAla = NCCC(=O)O

molecule	inhibition at 10 µM
O=C(O)[C@@H]1Cc2ccc(cc2)NC(=O)[C@H](O)[C@@H](O)C(=O)N[C@H](Cc2cccs2)C(=O)N[C@@H](Cc2ccc(-c3ccncc3)cc2)C(=O)N[C@H](Cc2ccccc2)C(=O)N1	10 to 50%

# batch size: 6; output inhibition at 10 µM per entry
1. O=C(O)CCCCCNC(=O)[C@@H]1Cc2ccc(cc2)OCC(=O)N[C@H](Cc2cccs2)C(=O)N[C@@H](Cc2ccc(-c3ccccc3)cc2)C(=O)N[C@H](CCc2ccccc2)C(=O)N1
2. O=C(O)CCCNC(=O)[C@@H]1Cc2ccc(cc2)OCC(=O)N[C@@H](Cc2cccs2)C(=O)N[C@@H](Cc2ccc(-c3ccccc3)cc2)C(=O)N[C@@H](Cc2ccccc2)C(=O)N1
3. NCCCC(=O)N[C@@H]1CC(=O)Nc2ccc(cc2)C[C@@H](C(=O)O)NC(=O)[C@@H](Cc2ccccc2)NC(=O)[C@H](Cc2ccc(-c3ccccc3)cc2)NC(=O)[C@@H](Cc2cccs2)NC1=O [Compound 380] (H-[GABA][dD][d2Thi][Bip][dF][Phe(4-NH2)]-OH; lactam 2-6)
4. O=C(O)CCNC(=O)[C@@H]1Cc2ccc(cc2)OCC(=O)N[C@@H](Cc2cccs2)C(=O)N[C@H](Cc2ccc(-c3ccccc3)cc2)C(=O)N[C@@H](Cc2ccccc2)C(=O)N1
5. O=C(O)[C@@H]1Cc2ccc(cc2)NC(=O)[C@H](O)[C@@H](O)C(=O)N[C@@H](Cc2cccs2)C(=O)N[C@@H](Cc2ccc(-c3ccccc3)cc2)C(=O)N[C@@H](Cc2ccccc2)C(=O)N1
6. O=C1CCC(=O)N[C@H](CCc2ccccc2)C(=O)N[C@@H](Cc2ccc(Cl)cc2Cl)C(=O)N[C@H](Cc2ccccc2)C(=O)N[C@@H](C(=O)O)Cc2ccc(cc2)N1 [Compound 112] ([d(hPhe)][Phe(2,4-Cl2)][dF][dPhe(4-NH2)]-OH; linker N-4 via Suc)

1: < 10%; 2: 10 to 50%; 3: < 10%; 4: < 10%; 5: < 10%; 6: < 10%

# batch size: 2; output inhibition at 10 µM per entry
1. O=C(O)CCNC(=O)[C@H]1Cc2ccc(cc2)NC(=O)CCC(=O)N[C@H](CCc2ccccc2)C(=O)N[C@@H](Cc2ccc(C(F)(F)F)cc2)C(=O)N[C@H](Cc2ccccc2)C(=O)N1 [Compound 15] ([d(hPhe)][Phe(4-CF3)][dF][dPhe(4-NH2)][βAla]-OH; linker N-4 via Suc)
2. O=C1CCC(=O)N[C@H](CCc2ccccc2)C(=O)N[C@@H](Cc2ccc(-c3ccccc3)cc2)C(=O)N[C@H](Cc2ccccc2)C(=O)N[C@H](C(=O)N[C@@H](Cc2ccccc2)C(=O)O)Cc2ccc(cc2)N1 [Compound 202] ([d(hPhe)][Bip][dF][Phe(4-NH2)]F-OH; linker N-4 via Suc)

< 10%
50 to 80%

----------
Give pIC50 for every item shown.
- system: TNFα / TNFα receptor (TNFα R1/Fc) (Homo sapiens, UniProt P01375)
- Construct: purchased R&D Systems
- Sequence (P01375 77-233 limits assumed, species assumed): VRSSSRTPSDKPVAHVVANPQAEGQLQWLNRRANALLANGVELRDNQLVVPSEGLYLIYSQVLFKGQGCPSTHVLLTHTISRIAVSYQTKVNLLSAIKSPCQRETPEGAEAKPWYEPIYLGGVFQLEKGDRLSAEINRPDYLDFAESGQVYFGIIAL
- methodDescription: Inhibition of binding of TNFα to the TNFα receptor (plate ELISA competition)
- conditionDescription: Table 2; read-out: Activity (IC50, inhibition of TNFα binding to TNFα R1/Fc)
pIC50: −log10 of the molar value. Numbered stars: 1 amine (or outer) side, 2 acyl side, 3 side chain; on linkers, the order of the positions; unused ones are H or OH. Bridge positions count the residues as written; N and C are the ends. Square brackets hold non-standard residues; d marks the D form. Peptide text beside a SMILES is read from it. Phe(4-CF3) = N[C@@H](Cc1ccc(C(F)(F)F)cc1)C(=O)O; Phe(4-NH2) = Nc1ccc(C[C@H](N)C(=O)O)cc1; d(hhPhe) = N[C@H](CCCc1ccccc1)C(=O)O; Suc = O=C(CCC(=O)[*:2])[*:1]

compound	pIC50
O=C1CCC(=O)N[C@H](CCCc2ccccc2)C(=O)N[C@@H](Cc2ccc(C(F)(F)F)cc2)C(=O)N[C@H](Cc2ccccc2)C(=O)N[C@H](C(=O)O)Cc2ccc(cc2)N1 [Compound 136] ([d(hhPhe)][Phe(4-CF3)][dF][Phe(4-NH2)]-OH; linker N-4 via Suc)	4.00 to 4.52

Now for a further compound.
I am curious: what pIC50 value has been reported for O=C1COc2ccc(cc2)C[C@@H](C(=O)O)NC(=O)[C@H](CCc2ccccc2)NC(=O)[C@@H](Cc2ccc(-c3ccccc3)cc2)NC(=O)[C@H](Cc2ccc(Cl)cc2Cl)N1 [Compound 697] ?
> 5.00

----------
- system: TNFα / TNFα receptor (TNFα R1/Fc) (Homo sapiens, UniProt P01375)
- Construct: purchased R&D Systems
- methodDescription: Inhibition of binding of TNFα to the TNFα receptor (plate ELISA competition)
- conditionDescription: Table 2; read-out: Activity (IC50, inhibition of TNFα binding to TNFα R1/Fc)
Numbered stars: 1 amine (or outer) side, 2 acyl side, 3 side chain; on linkers, the order of the positions; unused ones are H or OH. Bridge positions count the residues as written; N and C are the ends. Square brackets hold non-standard residues; d marks the D form. Peptide text beside a SMILES is read from it. dAla(benzothien-2-yl) = N[C@H](Cc1cc2ccccc2s1)C(=O)O; Phe(4-CF3) = N[C@@H](Cc1ccc(C(F)(F)F)cc1)C(=O)O; Bip = N[C@@H](Cc1ccc(-c2ccccc2)cc1)C(=O)O; Phe(4-NH2) = Nc1ccc(C[C@H](N)C(=O)O)cc1; d(hPhe) = N[C@H](CCc1ccccc1)C(=O)O; d2Thi = N[C@H](Cc1cccs1)C(=O)O; Suc = O=C(CCC(=O)[*:2])[*:1]; Ac3c = NC1(C(=O)O)CC1; Ava = NCCCCC(=O)O; GABA = NCCCC(=O)O
Give IC50 for every item shown.

molecule	IC50
NCCCC(=O)N[C@H]1CC(=O)N[C@H](Cc2cccs2)C(=O)N[C@@H](Cc2ccc(-c3ccccc3)cc2)C(=O)N[C@H](Cc2ccccc2)C(=O)N[C@H](C(=O)O)Cc2ccc(cc2)NC1=O [Compound 381]	< 10 µM
C[C@H](NC(=O)[C@@H]1Cc2ccc(cc2)NC(=O)CCC(=O)N[C@H](Cc2ccccc2)C(=O)N[C@@H](Cc2ccc(-c3ccccc3)cc2)C(=O)N[C@H](CCc2ccccc2)C(=O)N1)C(=O)O [Compound 458] ([dF][Bip][d(hPhe)][Phe(4-NH2)]A-OH; linker N-4 via Suc)	> 100 µM
O=C(O)[C@@H]1Cc2ccc(cc2)NC(=O)[C@H](O)[C@@H](O)C(=O)N[C@@H](Cc2cccs2)C(=O)N[C@H](Cc2ccc(-c3ccccc3)cc2)C(=O)N[C@H](Cc2ccccc2)C(=O)N1 [Compound 272]	> 100 µM
O=C1CCC(=O)N[C@H](Cc2cc3ccccc3s2)C(=O)N[C@@H](Cc2ccc(C(F)(F)F)cc2)C(=O)N[C@H](Cc2ccccc2)C(=O)N[C@H](C(=O)O)Cc2ccc(cc2)N1 [Compound 164] ([dAla(benzothien-2-yl)][Phe(4-CF3)][dF][Phe(4-NH2)]-OH; linker N-4 via Suc)	30 to 100 µM

# batch size: 5; output IC50 per entry
1. O=C(O)CCCCNC(=O)[C@@H]1Cc2ccc(cc2)NC(=O)CCC(=O)N[C@H](Cc2cccs2)C(=O)N[C@@H](Cc2ccc(-c3ccccc3)cc2)C(=O)N[C@H](CCc2ccccc2)C(=O)N1 [Compound 450] ([d2Thi][Bip][d(hPhe)][Phe(4-NH2)][Ava]-OH; linker N-4 via Suc)
2. NCCCC(=O)N[C@H]1CC(=O)Nc2ccc(cc2)C[C@@H](C(=O)O)NC(=O)[C@@H](Cc2ccccc2)NC(=O)[C@H](Cc2ccc(-c3ccccc3)cc2)NC(=O)[C@@H](Cc2cccs2)NC1=O [Compound 379] (H-[GABA]D[d2Thi][Bip][dF][Phe(4-NH2)]-OH; lactam 2-6)
3. O=C1CCC(=O)N[C@H](CCc2ccccc2)C(=O)N[C@@H](Cc2ccc(C(F)(F)F)cc2)C(=O)N[C@H](Cc2ccccc2)C(=O)N[C@H](C(=O)NC2(C(=O)O)CC2)Cc2ccc(cc2)N1 [Compound 18] ([d(hPhe)][Phe(4-CF3)][dF][Phe(4-NH2)][Ac3c]-OH; linker N-4 via Suc)
4. COC(=O)[C@@H]1Cc2ccc(cc2)OCC(=O)N[C@@H](Cc2cccs2)C(=O)N[C@H](Cc2ccc(-c3ccccc3)cc2)C(=O)N[C@@H](CCc2ccccc2)C(=O)N1 [Compound 615]
5. O=C1CCC(=O)N[C@H](CCc2ccccc2)C(=O)N[C@@H](Cc2ccc(C(F)(F)F)cc2)C(=O)N[C@H](Cc2ccccc2)C(=O)Nc2ccc(cc2)C[C@@H](C(=O)O)N1 [Compound 552]

["30 to 100 µM", "< 10 µM", "10 to 30 µM", "> 100 µM", "10 to 30 µM"]

# batch size: 5; output IC50 per entry
1. N=C(N)NCCC[C@@H]1NC(=O)[C@H](Cc2ccc(-c3ccccc3)cc2)NC(=O)[C@@H](Cc2cccs2)NC(=O)CCC(=O)Nc2ccc(cc2)C[C@@H](C(=O)O)NC1=O [Compound 72] ([d2Thi][Bip]R[Phe(4-NH2)]-OH; linker N-4 via Suc)
2. O=C(O)[C@H](Cc1ccccc1)NC(=O)[C@H]1Cc2ccc(cc2)NC(=O)[C@H](O)[C@@H](O)C(=O)N[C@H](Cc2cccs2)C(=O)N[C@@H](Cc2ccc(-c3ccccc3)cc2)C(=O)N[C@H](Cc2ccccc2)C(=O)N1 [Compound 430]
3. O=C(O)CN(Cc1ccccc1)C(=O)[C@@H]1Cc2ccc(cc2)OCC(=O)N[C@@H](Cc2cccs2)C(=O)N[C@@H](Cc2ccc(-c3ccccc3)cc2)C(=O)N[C@@H](Cc2ccccc2)C(=O)N1 [Compound 340]
4. O=C1N[C@H](CCc2ccccc2)C(=O)N[C@@H](C(=O)O)Cc2ccc(cc2)NC(=O)[C@H](O)[C@@H](O)C(=O)N[C@H](Cc2cccs2)C(=O)N[C@H]1Cc1ccc(-c2ccccc2)cc1 [Compound 236]
5. O=C1CCC(=O)N[C@H](Cc2ccccc2)C(=O)N[C@@H](Cc2ccc(-c3ccccc3)cc2)C(=O)N[C@H](CCc2ccccc2)C(=O)N[C@H](C(=O)N[C@H](Cc2ccccc2)C(=O)O)Cc2ccc(cc2)N1 [Compound 455] ([dF][Bip][d(hPhe)][Phe(4-NH2)][dF]-OH; linker N-4 via Suc)

["> 100 µM", "10 to 30 µM", "< 10 µM", "< 10 µM", "> 100 µM"]

I am curious: what IC50 value has been reported for O=C1CCC(=O)N[C@H](Cc2cccs2)C(=O)N[C@@H](Cc2ccc(-c3ccccc3)cc2)C(=O)N[C@H](Cc2ccccc2)C(=O)N[C@H](C(=O)N[C@H](Cc2ccccc2)C(=O)O)Cc2ccc(cc2)N1 [Compound 33] ([d2Thi][Bip][dF][Phe(4-NH2)][dF]-OH; linker N-4 via Suc) ?
< 10 µM
